Tested on: A549/ATCC NSCLC
assay.summary: NCI-60 one-dose screen, 48 h (100 = growth as untreated, 0 = no growth, -100 = all killed)
condition.info: 10 µM unless noted
Description: Growth inhibition of the A549/ATCC human Non-Small Cell Lung tumor cell line is measured as a screen for anti-cancer activity. Cells are grown in 96 well plates and exposed to the test compound for 48 hours. Compounds are tested at a single concentration, which is 10^-5 M for most compounds. The reported endpoint is percent growth (GI% or GIPRCNT), where numbers from 0 - 100% represent growth inhibition, and numbers from -100% - 0 represent cell death. […]
The panel holds about 83,000 compounds, 20% with a hit somewhere; the sample as a whole holds those more often.
Outcome label depends on growth relative to 90%: at/above gives label 1, below gives label 0.

These recorded examples may help you get a feel for the data.
- NNc1ncnc2cccc(Cl)c12: label 0
- COC(=O)CCOc1ccccc1: label 0
- CCOC(C)=N: label 1
- CN(C)C(=S)N(C)C: label 1
- Cc1ccc([N+](=O)[O-])cc1Br: label 0

# ---- query compound ----
Test whether the compound "Cc1cc(=NO)cc(C)n1O" records growth of 90% or higher.
label 1

* * *

Test system: NCI-H460 lung
assay.summary: NCI-60 one-dose screen, 48 h (100 = growth as untreated, 0 = no growth, -100 = all killed)
condition.info: 10 µM unless noted
Description: Growth inhibition of the NCI-H460 human Non-Small Cell Lung tumor cell line is measured as a screen for anti-cancer activity. Cells are grown in 96 well plates and exposed to the test compound for 48 hours. Compounds are tested at a single concentration, which is 10^-5 M for most compounds. The reported endpoint is percent growth (GI% or GIPRCNT), where numbers from 0 - 100% represent growth inhibition, and numbers from -100% - 0 represent cell death. […]
This is part of a sample that, as a whole, favours compounds with a hit. Of some 83,000 tested, about 20% had one in any assay.
Here, each record is paired with measured growth data.
Your answer is read as %, so omit the unit and give the number.

* Cc1cc(=NO)cc(C)n1O | 107
* CCOC(=O)c1csc(N)n1 | 105
* O=C(c1ccc(Cl)cc1)C1C(c2ccccc2)C1[N+](=O)[O-] (stereo not drawn) | 104

// "O=C(O)C#Cc1ccc(Cl)cc1" : growth value = 105

// "CC(=O)Oc1cc(C)c(OC(C)=O)c(C)c1C" : growth value = 105

// "CSc1nc(N)c(N)c(N)n1" : growth value = 104

// "CC(=O)Nc1cscc1NC(C)=O" : growth value = 101

// "O=S(=O)(O)c1ccc2cc(O)ccc2c1" : growth value = 102

* * *

Tested on: SK-MEL-28 melanoma
assay.summary: NCI-60 one-dose screen, 48 h
condition.info: 10 µM unless noted
Compounds without any hit were thinned out: in the full panel of roughly 83,000, 20% have a hit. The source made the active and inactive calls. Rule for the calls: active = growth percent below 10; inactive = the rest.
Give your call using only these classes: active, inactive

- CCN(C)c1ccccc1: inactive
- CCCC(=O)Oc1ccc(CC)cc1: inactive
- CCNC1=CC(=O)c2ncccc2C1=O: active

# ---- query compound ----
Any idea what this test logged for "CCOC(=N)c1ccc(C(=N)OCC)cc1" ?
inactive

* * *

Tested on: SK-MEL-5 melanoma
assay.summary: NCI-60 one-dose screen, 48 h (100 = growth as untreated, 0 = no growth, -100 = all killed)
condition.info: 10 µM unless noted
This is part of a sample that, as a whole, favours compounds with a hit. Of some 83,000 tested, about 20% had one in any assay. The source made the active and inactive calls. How the source made its calls: active means growth percent below 10; inactive means the rest.
quantity: growth

Consider the following illustrative entries.
• Cc1c(Cl)cc(Cl)c(N)c1Cl = 106% (inactive)
• O=C1C=CC(=O)N1Cc1ccco1 = 86.4% (inactive)

// "O=C1Cc2ccccc2C(=O)N1" : growth value = 106% (inactive)

// C#CCOC(=O)C(N)CS (stereo unspecified) : growth value = 104% (inactive)

// "CCOC(=O)C1=CC(=O)CC(C)(C)O1" : growth value = 112% (inactive)

// "CC(=O)Nc1ccc(OC(C)=O)cc1" : growth value = 92.8% (inactive)

// "Oc1ccc(O)c(-c2ccccc2)c1" : growth value = 42.9% (inactive)
